measurement_target: FLT3 N841I (Homo sapiens, UniProt P36888, N841I)
Sequence (P36888 27-993 N841I): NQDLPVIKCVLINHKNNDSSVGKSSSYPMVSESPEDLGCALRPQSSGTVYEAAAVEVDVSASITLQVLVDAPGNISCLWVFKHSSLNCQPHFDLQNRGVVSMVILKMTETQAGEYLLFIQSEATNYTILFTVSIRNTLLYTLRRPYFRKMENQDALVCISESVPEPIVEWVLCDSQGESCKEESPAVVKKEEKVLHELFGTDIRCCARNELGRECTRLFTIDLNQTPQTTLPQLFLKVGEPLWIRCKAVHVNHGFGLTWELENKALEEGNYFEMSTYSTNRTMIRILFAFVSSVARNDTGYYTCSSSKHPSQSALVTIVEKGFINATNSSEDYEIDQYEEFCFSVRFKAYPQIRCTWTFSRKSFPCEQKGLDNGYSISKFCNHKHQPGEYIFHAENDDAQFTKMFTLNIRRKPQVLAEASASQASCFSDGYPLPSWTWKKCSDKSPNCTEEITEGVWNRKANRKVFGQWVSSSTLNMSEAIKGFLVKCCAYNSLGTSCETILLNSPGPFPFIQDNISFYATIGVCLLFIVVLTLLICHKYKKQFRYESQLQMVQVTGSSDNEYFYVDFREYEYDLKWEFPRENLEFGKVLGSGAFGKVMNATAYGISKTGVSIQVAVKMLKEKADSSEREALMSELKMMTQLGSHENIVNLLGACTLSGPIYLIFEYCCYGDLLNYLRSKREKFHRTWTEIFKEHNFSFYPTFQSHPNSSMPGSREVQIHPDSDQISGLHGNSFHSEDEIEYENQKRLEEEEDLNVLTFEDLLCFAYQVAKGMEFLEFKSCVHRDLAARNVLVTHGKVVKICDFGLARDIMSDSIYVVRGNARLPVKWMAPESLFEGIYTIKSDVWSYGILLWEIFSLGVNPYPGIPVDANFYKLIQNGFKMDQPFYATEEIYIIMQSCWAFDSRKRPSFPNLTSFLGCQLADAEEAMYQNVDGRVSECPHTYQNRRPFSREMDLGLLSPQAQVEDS
experiment_summary: DiscoverX KINOMEscan competition binding, FLT3 N841I
reported_endpoint: pKd
Reminder that pKd is minus the log10 of a molar concentration.

# annotated cases, reported pKd shown
1. CC(C)(O)c1cn2c(-c3cccc(N[C@H]4CNCC[C@@H]4F)n3)cnc2cn1 [Compound 31] : 8.68
2. FC(F)c1cn2c(-c3cccc(N[C@H]4CNC[C@@H]4F)n3)cnc2cn1 [Compound 16] : 9.19

Below: the item to evaluate.
Measured pKd, CC1(c2cn3c(-c4cccc(N[C@H]5CNC[C@@H]5F)n4)cnc3cn2)CC1 [Compound 1] : 9.92
